Origin of the recorded values: the supplement of paper PMC13380429

Test system: Calu-3
Experiment: cell viability relative to DMSO; higher = less toxic
Settings: 72 h; 10 nM
Structures can show the parent of a compound that is named as a salt.
Would you kindly list cell viability for each of these compounds?
Numbers only, in %.

The examples below pair each entry with its known result.
Provide one value: measured cell viability of O=C1C=CC[C@@H]2[C@H]3CCCN4CCC[C@@H](CN12)[C@@H]34
103

Provide one value: measured cell viability of CC(C)=CCC/C(C)=C/CNCCNC1C2CC3CC(C2)CC1C3 (centres undefined)
111

Provide one value: measured cell viability of Cn1cnnc1Sc1c([N+](=O)[O-])ncn1C
111

Provide one value: measured cell viability of CC(C)=CCC/C(C)=C/CC/C(C)=C/C=C/C(C)=C/C(=O)O
104

Provide one value: measured cell viability of NCCc1ccc(O)c(O)c1
100

For every listed record, write down its cell viability.
1. C[N+](C)(C)CC[N+]1(C)Cc2c(Cl)c(Cl)c(Cl)c(Cl)c2C1 [chlorisondamine-diiodide]
2. S=P(N1CC1)(N1CC1)N1CC1

[102, 95.7]

For every listed record, write down its cell viability.
1. CCC[C@@H]1C[C@@H](C(=O)N[C@@H]([C@H]2O[C@H](SC)[C@H](O)[C@@H](O)[C@H]2O)[C@H](C)Cl)N(C)C1 [CLINDAMYCIN HYDROCHLORIDE]
2. N=C(NCc1ccc(Cl)cc1)SCCCc1c[nH]cn1

1. 96.7
2. 100
